- System: vancomycin-resistant Enterococcus (VRE) clinical isolates
- ASSAY_EXPLANATION: Broth microdilution MIC, clinical VRE isolates
- Assay type: cell-based, E. faecium
- EXPERIMENTAL_CONDITIONS: clinical isolate 27,085 VRE; 24 h, 0.08–40 μM; read-out: MIC 27,085 VRE
MEASUREMENT_LABEL: MIC (µM)

Worked examples, 5 compounds total:
| COMPOUND | ASSAYED_SYSTEM | MIC, µM |
| --- | --- | --- |
| Cc1ccc(C(C)C)cc1.F[P-](F)(F)(F)(F)F.N[C@@H]1[C@@H](OCc2ccccc2)[C@H](OCc2ccccc2)[C@@H](COCc2ccccc2)O[C@H]1c1cnccn1.[Cl][Os+] | vancomycin-resistant Enterococcus (VRE) clinical isolates | 40 |
| Cc1c(C)c(C)[c-](C)c1C.F[P-](F)(F)(F)(F)F.NC1C(c2cccnn2)OC(COC(=O)c2ccccc2)C(OC(=O)c2ccccc2)C1OC(=O)c1ccccc1.[Cl][Ir+2] (mixture of isomers) | vancomycin-resistant Enterococcus (VRE) clinical isolates | 40 |
| Cc1ccc(C(C)C)cc1.F[P-](F)(F)(F)(F)F.N[C@@H]1[C@@H](OC(=O)c2ccccc2)[C@H](OC(=O)c2ccccc2)[C@@H](COC(=O)c2ccccc2)O[C@H]1c1ccccn1.[Cl][Os+] | vancomycin-resistant Enterococcus (VRE) clinical isolates | 10 |
| Cc1ccc(C(C)C)cc1.F[P-](F)(F)(F)(F)F.N[C@@H]1[C@@H](OC(=O)c2ccccc2)[C@H](OC(=O)c2ccccc2)[C@@H](COC(=O)c2ccccc2)O[C@H]1c1ccccn1.[Cl][Ru+] | vancomycin-resistant Enterococcus (VRE) clinical isolates | 5 |
| Cc1ccc(C(C)C)cc1.F[P-](F)(F)(F)(F)F.NC1C(c2cccnn2)OC(COC(=O)c2ccccc2)C(OC(=O)c2ccccc2)C1OC(=O)c1ccccc1.[Cl][Os+] (mixture of isomers) | vancomycin-resistant Enterococcus (VRE) clinical isolates | 10 |

(I) Cc1ccc(C(C)C)cc1.F[P-](F)(F)(F)(F)F.N[C@@H]1[C@@H](OCc2ccccc2)[C@H](OCc2ccccc2)[C@@H](COCc2ccccc2)O[C@H]1c1cnccn1.[Cl][Ru+]
(II) Cc1c(C)c(C)[c-](C)c1C.F[P-](F)(F)(F)(F)F.N[C@@H]1[C@@H](OC(=O)c2ccccc2)[C@H](OC(=O)c2ccccc2)[C@@H](COC(=O)c2ccccc2)O[C@H]1c1ccccn1.[Cl][Ir+2]
Could you kindly indicate whether I or II has the higher MIC value? Selection: enter the item's label.
II

----------
- ASSAY_EXPLANATION: Distribution coefficient (logD), n-octanol-PBS
- Assay type: physicochemical
- EXPERIMENTAL_CONDITIONS: n-octanol-PBS (pH = 7.4) system
MEASUREMENT_LABEL: logD

| COMPOUND | logD |
| --- | --- |
| Cc1ccc(C(C)C)cc1.F[P-](F)(F)(F)(F)F.N[C@@H]1[C@@H](OCc2ccccc2)[C@H](OCc2ccccc2)[C@@H](COCc2ccccc2)O[C@H]1c1cnccn1.[Cl][Ru+] | 2.06 |
| Cc1ccc(C(C)C)cc1.F[P-](F)(F)(F)(F)F.N[C@@H]1[C@@H](OC(=O)c2ccccc2)[C@H](OC(=O)c2ccccc2)[C@@H](COC(=O)c2ccccc2)O[C@H]1c1ccc2ccccc2n1.[Cl][Os+] | 2.21 |
| Cc1c(C)c(C)[c-](C)c1C.F[P-](F)(F)(F)(F)F.NC1C(c2cccnn2)OC(COC(=O)c2ccccc2)C(OC(=O)c2ccccc2)C1OC(=O)c1ccccc1.[Cl][Ir+2] (mixture of isomers) | 1.17 |
| Cc1c(C)c(C)[c-](C)c1C.F[P-](F)(F)(F)(F)F.N[C@@H]1[C@@H](OC(=O)c2ccccc2)[C@H](OC(=O)c2ccccc2)[C@@H](COC(=O)c2ccccc2)O[C@H]1c1ccccn1.[Cl][Rh+2] | 1.20 |
| Cc1ccc(C(C)C)cc1.F[P-](F)(F)(F)(F)F.N[C@@H]1[C@@H](OC(=O)c2ccccc2)[C@H](OC(=O)c2ccccc2)[C@@H](COC(=O)c2ccccc2)O[C@H]1c1ccccn1.[Cl][Os+] | 2.15 |
| Cc1ccc(C(C)C)cc1.F[P-](F)(F)(F)(F)F.N[C@@H]1[C@@H](OC(=O)c2ccccc2)[C@H](OC(=O)c2ccccc2)[C@@H](COC(=O)c2ccccc2)O[C@H]1c1cnccn1.[Cl][Os+] | 1.42 |

(I) Cc1c(C)c(C)[c-](C)c1C.F[P-](F)(F)(F)(F)F.N[C@@H]1[C@@H](OC(=O)c2ccccc2)[C@H](OC(=O)c2ccccc2)[C@@H](COC(=O)c2ccccc2)O[C@H]1c1ccc2ccccc2n1.[Cl][Rh+2]
(II) Cc1ccc(C(C)C)cc1.F[P-](F)(F)(F)(F)F.N[C@@H]1[C@@H](OCc2ccccc2)[C@H](OCc2ccccc2)[C@@H](COCc2ccccc2)O[C@H]1c1cnccn1.[Cl][Os+]
(III) Cc1c(C)c(C)[c-](C)c1C.F[P-](F)(F)(F)(F)F.N[C@@H]1[C@@H](OC(=O)c2ccccc2)[C@H](OC(=O)c2ccccc2)[C@@H](COC(=O)c2ccccc2)O[C@H]1c1ccccn1.[Cl][Ir+2]
In this exercise, place the 3 compounds in ascending sequence of their recorded logD. # format: label list in the order the request specifies
III, I, II
(III: 1.08, I: 1.66, II: 2.64)
